Reference source for all entries: paper PMC3358452

Assay: Kinetics of decay
Format: physicochemical
Conditions: buffered aqueous solution, pH 7, t1/2 for decay, pH = 7.0, 25 °C
assayEndpoint: half-life at 0.0013 M

Exercise: Supply recorded half-life at 0.0013 M for "O=C1COCCO1" here.
Key: ~2 h

###

Assay: pKa of
Assay type: physicochemical
Conditions: Calculated pKa, ionic strength 0.25 M (KCl); 25 °C; buffer 0.05 M, AH/A- = 1.0
assayEndpoint: pKa
Answers are plain numbers.

Exercise: Retrieve pKa measured for O=C(O)COCCO [compound 2, 2-(2-hydroxyethoxy) acetic acid] and print it.
Key: 3.36
